# Test system: S. aureus GC 1131
# ASSAY_DETAILS: MIC, broth microdilution
# DETAILS: Staphylococcus aureus, GC1131, S. aureus GC 1131; Water pre-incubation
Could you mark each record criterion met if its MIC falls strictly under 1 µg/mL, and criterion not met if it equals or exceeds it?

Decide: MIC of CCCN(CC(=O)Nc1cc(N(C)C)c2c(c1O)C(=O)C1=C(O)[C@]3(O)C(=O)C(C(N)=O)=C(O)[C@@H](N(C)C)[C@@H]3C[C@@H]1C2)C(=O)OCOC(=O)c1ccc(F)cc1 [Example 8] strictly below 1 µg/mL?
criterion not met

Check CCCN(CC(=O)Nc1cc(N(C)C)c2c(c1O)C(=O)C1=C(O)[C@]3(O)C(=O)C(C(N)=O)=C(O)[C@@H](N(C)C)[C@@H]3C[C@@H]1C2)C(=O)OCOC(=O)C(C)C [Example 10] too.
criterion met

What about this compound? CCCCN(CC(=O)Nc1cc(N(C)C)c2c(c1O)C(=O)C1=C(O)[C@]3(O)C(=O)C(C(N)=O)=C(O)[C@@H](N(C)C)[C@@H]3C[C@@H]1C2)C(=O)OCOC(=O)Cc1ccccc1 [Example 12]
criterion not met

# iterate: CCCN(CC(=O)Nc1cc(N(C)C)c2c(c1O)C(=O)C1=C(O)[C@]3(O)C(=O)C(C(N)=O)=C(O)[C@@H](N(C)C)[C@@H]3C[C@@H]1C2)C(=O)OCOC(=O)Cc1ccccc1 [Example 11]
criterion met

What about CCCCN(CC(=O)Nc1cc(N(C)C)c2c(c1O)C(=O)C1=C(O)[C@]3(O)C(=O)C(C(N)=O)=C(O)[C@@H](N(C)C)C3CC1C2)C(=O)OCOC(=O)c1ccc(C)cc1 (stereo partly drawn) [Example 3] ?
criterion not met
